// provenance: PubChem BioAssay AID1159580

assay: chemical genetic growth profiling, strain panel (AID 1159580);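 also: tested at 20 µM; growth read once vehicle control cultures reached saturation at 30 °C; lower values mean less growth of the strain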; settings: S. cerevisiae deletion strains, growth OD, locus YMR078C, strain ctf18
Out of some 5,500 compounds screened, about 2,000 (36%) were called active. Inconclusive results (about 18%) are left out. Rule as the data show it: active = normalized growth mostly below about 0.91 (no sharp cut-off); inconclusive = no clear call, values can overlap the other calls; inactive = mostly above about 0.92. This is one part of the list. Where a SMILES comes first, the peptide text is derived from it.
Outcome codes: active, inactive

INSERT INTO assay_data (compound, qualitative_label) VALUES
  ('O=C(O)CCCCCCCC(=O)O', 'inactive'),
  ('CC(=O)N[C@@H](CC(=O)O)C(=O)N[C@@H](CCC(=O)O)C(=O)O (Ac-Asp-Glu-OH)', 'inactive'),
  ('CC(=O)N[C@@H](CCC(=O)O)C(=O)O', 'inactive'),
  ('CCCCCCCCCCCC(=O)OCC(COP(=O)(O)OCC(O)COP(=O)(O)OCC(COC(=O)CCCCCCCCCCC)OC(=O)CCCCCCCCCCC)OC(=O)CCCCCCCCCCC (stereo not given)', 'inactive'),
  ('COc1ccc2c(c1)OCC(Cc1ccc(OC)c(OC)c1)C2=O (stereo not given)', 'inactive'),
  ('NC1(C(=O)O)CCCC1', 'inactive'),
  ('COc1cc2c(cc1OC)C1(O)C(=O)c3ccc(O)c(C(=O)O)c3OC1CO2 (stereo not given)', 'inactive'),
  ('COC(=O)[C@@H]1OC(=O)C2OC23[C@@]1(C)CCC1[C@]2(C)C(C[C@@H](O)[C@]13C)C(C)(C)[C@H](OC(C)=O)C[C@@H]2OC(C)=O (stereo not given in full)', 'inactive'),
  ('CN=C(N)NCCCC(N)C(=O)O (stereo not given)', 'inactive'),
  ('CC1OC(O[C@H]2/C=C/C=C/C=C/C=C/C=C/C=C/C=C/[C@H](C)[C@@H](O)[C@@H](C)[C@H](C)OC(=O)CC(O)CC(O)CCC(O)C(O)CC(O)C[C@]3(O)C[C@H](O)C(C(=O)O)C(C2)O3)C(O)[C@H](N)C1O (stereo not given in full)', 'inactive'),
  ('COc1ccc2oc(-c3ccccc3)c(OC)c(=O)c2c1', 'active'),
  ('Cc1cc(CC(=O)O)n(C)c1C(=O)c1ccc(Cl)cc1', 'inactive'),
  ('Cc1cc(/C=C/c2ccc3cc(N(C)C)ccc3[n+]2C)c(C)n1-c1ccccc1', 'inactive'),
  ('NCC[C@@H](O)C(=O)N[C@@H]1C[C@H](N)[C@@H](O[C@H]2O[C@H](CN)[C@@H](O)[C@H](O)[C@H]2O)[C@H](O)[C@H]1O[C@H]1O[C@H](CO)[C@@H](O)[C@H](N)C1O (stereo not given in full)', 'inactive'),
  ('COc1ccc2oc3ccccc3c(=O)c2c1', 'active'),
  ('O=C(O)CCC1NCC2CC1CN1CCCCC21 (stereo not given)', 'inactive'),
  ('COc1c(C)c2c(c(O)c1C/C=C(\C)CCC(=O)O)C(=O)OC2', 'active'),
  ('CC(C)c1nc(N(C)S(C)(=O)=O)nc(-c2ccc(F)cc2)c1/C=C/[C@@H](O)C[C@@H](O)CC(=O)O', 'inactive'),
  ('C[C@]12CCC3C(CC[C@H]4C[C@@H](O)CC[C@]34C)C1CC[C@@H]2O (stereo not given in full)', 'inactive'),
  ('CCC(C)C(=O)c1c(O)c(C)c2oc3c(C)c(O)c(C(=O)C(C)CC)c(O)c3c2c1O (stereo not given)', 'inactive'),
  ('NCCCC(=O)O', 'inactive'),
  ('COc1ccc2c(=O)c(OC)c(-c3ccccc3)oc2c1', 'active'),
  ('CC1CCC(NC(=O)N(CCCl)N=O)CC1 (stereo not given)', 'inactive'),
  ('CN[C@@H]1C(OC2[C@H](O[C@H]3[C@H](O)[C@@H](O)[C@H](N=C(N)N)[C@@H](O)[C@@H]3N=C(N)N)OC(C)[C@]2(O)CO)OC(CO)C(O)C1O (stereo not given in full)', 'inactive'),
  ('Cc1cccc(C)c1NC(=O)C1CCCCN1C (stereo not given)', 'inactive');
